# collection of log10 Ki values tested on Cannabinoid receptor 2 (Homo sapiens)
# Sequence (P34972 whole entry): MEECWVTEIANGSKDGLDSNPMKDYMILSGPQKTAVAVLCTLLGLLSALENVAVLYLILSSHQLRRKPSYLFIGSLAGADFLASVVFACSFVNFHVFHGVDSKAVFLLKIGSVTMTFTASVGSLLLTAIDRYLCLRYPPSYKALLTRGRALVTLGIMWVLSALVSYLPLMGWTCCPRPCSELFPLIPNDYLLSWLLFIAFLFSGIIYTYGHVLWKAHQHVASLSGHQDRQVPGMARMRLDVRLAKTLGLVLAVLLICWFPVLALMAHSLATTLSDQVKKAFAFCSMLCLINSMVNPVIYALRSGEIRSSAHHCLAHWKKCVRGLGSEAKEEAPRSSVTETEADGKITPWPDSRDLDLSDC
The figures below represent log10 of Ki, where Ki is stated in nM.

Example results:
sample_smiles=O=C(Nc1sc2c(c1C(=O)N1CC(F)(F)C1)CCOC2)c1c(F)cccc1C(F)(F)F test_value=2.65
sample_smiles=O=C(Nc1sc2c(c1C(=O)N1CCCCC1)CCOC2)c1ccccc1C(F)(F)F test_value=2.38
sample_smiles=COCCNC(=O)c1c(NC(=O)c2c(F)cccc2C(F)(F)F)sc2c1CCOC2 test_value=2.96
sample_smiles=O=C(Nc1sc2c(c1C(=O)N1CC(F)(F)C1)CCOC2)c1ccccc1OC(F)(F)F test_value=2.38

Could you now consider this next compound?
Query string: # input compound: O=C(Nc1sc2c(c1C(=O)N1CC(F)(F)C1)CCOC2)c1ccccc1C(F)(F)F ; wanted: its log10 Ki
Result string: 1.91

Entry source: ChEMBL document CHEMBL2203203
